Tested on: SNB-75 CNS
Assay: NCI tumour cell line growth inhibition, 48 h
Below: a set of entries, each annotated with reported GI50.
EXPERIMENTAL_ENDPOINT: GI50

COMPOUND	EXPERIMENTAL_ENDPOINT	RECORDED_MEASUREMENT
CCOC(=O)c1cc(-c2ccc(OC)c(OC)c2)[nH]c1N/N=C/c1c(Cl)cccc1Cl	GI50	1850 nM
CC[C@]12C=CCN3CC[C@@]4(c5ccc(OC)cc5N(C)[C@H]4[C@@](O)(C(=O)OC)[C@@H]1OC(=O)CCC(=O)N[C@H](Cc1c[nH]c4ccccc14)C(=O)OC)[C@@H]32	GI50	2230 nM
COC(=O)c1ccc2c(c1)c1c(C)c3ccncc3c(C)c1n2C	GI50	104 nM
CCCN1C(=O)/C(=C/c2ccc(O)cc2)SC1=Nc1ccc(OC)cc1	GI50	17800 nM
CCC[CH2][Sn]([CH2]CCC)([O]C(=O)c1cc(F)cc(F)c1)[O][Sn]([CH2]CCC)([CH2]CCC)[O]C(=O)c1cc(F)cc(F)c1	GI50	1260 nM
O=C(Nc1cccc(Cl)c1)c1cc(N=Nc2ccc([N+](=O)[O-])cc2Cl)ccc1O	GI50	2650 nM
O=C(O)Cn1c2c(c3c(O)cccc31)C(=O)c1ccccc1-2	GI50	> 100000 nM
COc1ccc(/C=C2\CC(C)CC3C2=NN(c2ccccc2)C3c2ccc(OC)c(OC)c2)cc1OC (stereo not given)	GI50	3400 nM
CO[C@@H]1[C@H]2[C@@H](C)c3ccoc3C[C@@H]2[C@@]2(C)CC[C@H](OC(=O)c3ccccc3)[C@](C)(C(=O)O)[C@]2(O)[C@@H]1OC(=O)c1ccccc1	GI50	> 50000 nM
CC(=O)C1CCC2C3CC=C4CC(SC(=N)N)CCC4(C)C3CCC12C (stereo not given)	GI50	1580 nM
